Target: intracellular GCN2 (phosphorylation of the GCN2 substrate eIF2α) (Homo sapiens, UniProt Q9P2K8)
Sequence (Q9P2K8 whole entry): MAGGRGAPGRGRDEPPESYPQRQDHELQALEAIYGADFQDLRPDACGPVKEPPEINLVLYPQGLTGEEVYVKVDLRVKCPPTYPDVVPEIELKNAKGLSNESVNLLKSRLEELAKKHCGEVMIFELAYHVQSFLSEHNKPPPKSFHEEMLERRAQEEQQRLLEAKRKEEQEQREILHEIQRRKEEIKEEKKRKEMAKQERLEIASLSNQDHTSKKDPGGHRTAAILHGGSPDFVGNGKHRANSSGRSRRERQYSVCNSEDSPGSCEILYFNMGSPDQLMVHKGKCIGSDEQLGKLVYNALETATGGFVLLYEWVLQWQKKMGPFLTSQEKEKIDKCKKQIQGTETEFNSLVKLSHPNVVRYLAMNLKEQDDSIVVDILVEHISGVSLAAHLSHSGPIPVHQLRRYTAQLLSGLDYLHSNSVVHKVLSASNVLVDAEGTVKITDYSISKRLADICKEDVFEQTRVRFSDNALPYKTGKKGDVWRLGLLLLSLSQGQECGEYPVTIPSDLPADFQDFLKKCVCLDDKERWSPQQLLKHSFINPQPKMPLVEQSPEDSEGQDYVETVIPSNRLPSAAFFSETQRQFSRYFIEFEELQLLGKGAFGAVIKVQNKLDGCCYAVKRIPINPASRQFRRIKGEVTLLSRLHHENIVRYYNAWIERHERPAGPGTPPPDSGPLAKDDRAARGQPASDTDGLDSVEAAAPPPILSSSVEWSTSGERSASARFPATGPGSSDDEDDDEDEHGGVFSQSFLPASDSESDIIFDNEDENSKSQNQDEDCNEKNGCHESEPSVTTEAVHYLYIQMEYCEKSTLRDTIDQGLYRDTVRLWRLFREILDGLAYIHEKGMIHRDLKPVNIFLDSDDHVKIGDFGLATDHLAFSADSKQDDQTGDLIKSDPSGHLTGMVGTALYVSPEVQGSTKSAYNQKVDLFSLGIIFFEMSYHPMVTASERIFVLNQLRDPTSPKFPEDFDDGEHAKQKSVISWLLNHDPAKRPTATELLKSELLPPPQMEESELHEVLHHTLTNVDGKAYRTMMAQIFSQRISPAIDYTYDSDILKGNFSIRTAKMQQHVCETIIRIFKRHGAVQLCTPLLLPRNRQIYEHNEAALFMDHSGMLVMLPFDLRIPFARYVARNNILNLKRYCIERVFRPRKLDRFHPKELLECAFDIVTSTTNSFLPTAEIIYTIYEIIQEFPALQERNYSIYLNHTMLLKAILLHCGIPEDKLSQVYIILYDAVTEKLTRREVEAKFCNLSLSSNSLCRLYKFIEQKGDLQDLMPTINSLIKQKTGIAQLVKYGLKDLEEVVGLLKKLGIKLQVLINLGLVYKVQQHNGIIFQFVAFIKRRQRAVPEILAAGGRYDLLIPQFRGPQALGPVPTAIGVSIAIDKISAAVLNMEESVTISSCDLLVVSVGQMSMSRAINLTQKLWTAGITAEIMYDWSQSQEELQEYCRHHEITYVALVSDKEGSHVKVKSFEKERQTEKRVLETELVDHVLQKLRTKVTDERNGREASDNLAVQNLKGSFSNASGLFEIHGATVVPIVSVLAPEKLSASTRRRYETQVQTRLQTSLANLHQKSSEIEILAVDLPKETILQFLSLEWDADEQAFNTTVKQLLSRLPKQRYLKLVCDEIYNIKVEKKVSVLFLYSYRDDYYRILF
Assay: GCN2 cellular inhibition assay (AlphaScreen SureFire P-eIF2α Ser51, borrelidin-treated U2OS cells)
Type: cell-based
Conditions: compounds of Formula V; U2OS cells, 10 μM borrelidin, 1 h; read-out: GCN2 Biomarker (IC50)
measured-endpoint: IC50

FC(F)(F)c1cn2c(-c3nccc(N4CCO[C@@H](c5cn[nH]c5)C4)n3)cnc2s1 (stereo in doubt) [Compound V-4] | 500 to 5000 nM
CC1CN(c2ccnc(-c3cnc4sc(C(F)(F)F)cn34)n2)C(C)C(c2cn[nH]c2)N1 (single isomer, unassigned) [Compound V-11] | < 500 nM
FC(F)(F)c1cn2c(-c3nccc(N4CCOC(c5cn[nH]c5)C4)n3)cnc2s1 (stereo not shown) [Compound V-15] | < 500 nM
CS(=N)(=O)CC1CCCN(c2ccnc(-c3cnc4sc(C(F)(F)F)cn34)n2)C1 (racemic) [Compound V-18] | > 5000 nM
NC(=O)[C@H]1CCCN(c2ccnc(-c3cnc4sc(C(F)(F)F)cn34)n2)C1 [Compound V-10] | < 500 nM

Task: Returns the measured IC50 for the input molecule. Input: FC(F)(F)c1cn2c(-c3nccc(N4CCO[C@H](c5cn[nH]c5)C4)n3)cnc2s1 (stereo in doubt) [Compound V-3]
Output: < 500 nM

Task: Returns the measured IC50 for the input molecule. Input: FC(F)(F)c1cn2c(-c3nccc(N4CCOC(c5cn[nH]c5)C4)n3)cnc2s1 (stereo not shown) [Compound V-20]
Output: < 500 nM

Task: Returns the measured IC50 for the input molecule. Input: CC1CC(CS(C)(=N)=O)C(C)N(c2ccnc(-c3cnc4sc(C(F)(F)F)cn34)n2)C1 (stereo not shown) [Compound V-17]
Output: 500 to 5000 nM

Task: Returns the measured IC50 for the input molecule. Input: FC(F)(F)c1cn2c(-c3nccc(N4CCC(c5cn[nH]c5)C4)n3)cnc2s1 (stereo not shown) [Compound V-7]
Output: 500 to 5000 nM

Task: Returns the measured IC50 for the input molecule. Input: CC1CC(CS(C)(=N)=O)C(C)N(c2ccnc(-c3cnc4sc(C(F)(F)F)cn34)n2)C1 (stereo not shown) [Compound V-16]
Output: > 5000 nM

Task: Returns the measured IC50 for the input molecule. Input: CC1CN(c2ccnc(-c3cnc4sc(C(F)F)cn34)n2)CC(CNS(C)(=O)=O)C1(F)F (stereo not shown) [Compound V-14]
Output: 500 to 5000 nM

Task: Returns the measured IC50 for the input molecule. Input: CS(=N)(=O)CC1CCCN(c2ccnc(-c3cnc4sc(C(F)(F)F)cn34)n2)C1 (racemic) [Compound V-19]
Output: > 5000 nM

Task: Returns the measured IC50 for the input molecule. Input: CC1CN(c2ccnc(-c3cnc4sc(C(F)(F)F)cn34)n2)C(C)C(c2cn[nH]c2)N1 (stereo not shown) [Compound V-13]
Output: < 500 nM

Task: Returns the measured IC50 for the input molecule. Input: C[C@H]1CN(c2ccnc(-c3cnc4sc(C(F)F)cn34)n2)C[C@@H](CNS(C)(=O)=O)C1(F)F (stereo in doubt) [Compound V-1]
Output: 500 to 5000 nM

Task: Returns the measured IC50 for the input molecule. Input: CP(C)(=O)C1CC(c2cn[nH]c2)CN(c2ccnc(-c3cnc4sc(C(F)(F)F)cn34)n2)C1 (racemic) [Compound V-5]
Output: > 5000 nM

Task: Returns the measured IC50 for the input molecule. Input: CC1CN(c2ccnc(-c3cnc4sc(C(F)(F)F)cn34)n2)C(C)C(c2cn[nH]c2)N1 (single isomer, unassigned) [Compound V-12]
Output: 500 to 5000 nM

Origin of values: patent US10988477B2
